FYI, the data here is from ChEMBL document CHEMBL1133185.

Tested on: Human immunodeficiency virus 1
Assay: Compound was evaluated for the inhibition of wilde-type RF strain of HIV-1
Type: functional
measured-endpoint: IC90 (nM)
Kindly provide the numeric value in nM only, without the unit symbol.

compound	quantity-unit	IC90
CC(C)C#C[C@@]1(C(F)(F)F)NC(=O)Nc2ccc(F)c(F)c21	nM	229
O=C1Nc2ccc(Cl)cc2[C@@](C#CC2CC2)(C(F)(F)F)O1	nM	1.7

# lookup: IC90 of "O=C1Nc2ccc(Cl)cc2[C@](C#CC2CC2)(C(F)(F)F)N1" 34000

Recorded IC90 for CC(C)C#C[C@]1(C(F)(F)F)NC(=O)Nc2ccc(F)c(F)c21 (stereo in doubt; 37) , please? 1.6

# IC90 lookup, item "O=C1Nc2ccc(F)c(F)c2[C@](C#CC2CC2)(C(F)(F)F)N1" 101

* * *

Entries and their IC90
System: Human immunodeficiency virus 1
Assay: Calculated Potency against Mutant HIV-1 sV179D/L100I/Y181C
Format: functional
# unit: nM | format: bare number

// known answers, use as guide
compound	quantity-unit	IC90
O=C1Nc2ccc(Cl)cc2[C@@](C#CC2CC2)(C(F)(F)F)N1 (stereo in doubt)	nM	59
O=C1Nc2ccc(F)c(F)c2[C@@](C#CC2CC2)(C(F)(F)F)N1 (stereo in doubt)	nM	41
O=C1Nc2ccc(F)c(F)c2[C@@](/C=C/C2CC2)(C(F)(F)F)N1	nM	130

Continue with the next compound.
Missing value: IC90, Human immunodeficiency virus 1, entry "O=C1Nc2ccc(Cl)cc2[C@@](/C=C/C2CC2)(C(F)(F)F)N1" . Fill in? 120

* * *

Tested on: Human immunodeficiency virus 1
Assay: Plasma Potency against Mutant HIV-1 sV179D/L100I/Y181C
Type: functional
measured-endpoint: IC90 (µM)
Reply numerically in µM, unit not repeated.

molecule	measured-on	IC90, µM
O=C1Nc2ccc(F)c(F)c2[C@@](/C=C/C2CC2)(C(F)(F)F)N1	Human immunodeficiency virus 1	4.3
O=C1Nc2ccc(F)c(F)c2[C@@](C#CC2CC2)(C(F)(F)F)N1 (stereo in doubt)	Human immunodeficiency virus 1	1.46
O=C1Nc2ccc(Cl)cc2[C@@](/C=C/C2CC2)(C(F)(F)F)N1	Human immunodeficiency virus 1	6

Please state recorded IC90 (tested on Human immunodeficiency virus 1) of O=C1Nc2ccc(Cl)cc2[C@@](C#CC2CC2)(C(F)(F)F)N1 (stereo in doubt) 3.9

* * *

System: Human immunodeficiency virus 1
Assay: Calculated Potency against Mutant HIV-1 sL100I
Assay type: functional
measured-endpoint: IC90 (nM)
Supply the numeric figure in nM, leaving out any unit text.

molecule	IC90 [nM]
O=C1Nc2ccc(F)c(F)c2[C@@](C#CC2CC2)(C(F)(F)F)N1 (stereo in doubt)	3

Please report the recorded IC90 for "O=C1Nc2ccc(F)c(F)c2[C@@](/C=C/C2CC2)(C(F)(F)F)N1" . 3.1

So what does the record say about IC90 for "O=C1Nc2ccc(Cl)cc2[C@@](/C=C/C2CC2)(C(F)(F)F)N1" ? 4.3

Which IC90 value is on record for O=C1Nc2ccc(Cl)cc2[C@@](C#CC2CC2)(C(F)(F)F)N1 (stereo in doubt) ? 4

* * *

Test system: Human immunodeficiency virus 1
Assay: In vitro antiviral activity against HIV-1 (L100I).
Assay type: functional
measured-endpoint: IC90 (nM)
# value in nM; strip the unit string

The cases that follow already have their IC90 on record.
molecule	IC90 [nM]
O=C1Nc2ccc(F)cc2[C@@](C#Cc2ccccc2)(C(F)(F)F)N1	677
CC(C)C#C[C@]1(C(F)(F)F)NC(=O)Nc2ccc(F)c(Cl)c21	13
O=C1Nc2ccc(F)c(Cl)c2[C@@](C#CC2CC2)(C(F)(F)F)N1	16
CC(C)C#C[C@]1(C(F)(F)F)NC(=O)Nc2ccc(F)cc21	17

Find the recorded IC90 belonging to "O=C1Nc2ccc(Cl)cc2[C@@](C#Cc2ccccc2)(C(F)(F)F)N1" and report it. 365

Using the record for CC(C)C#C[C@]1(C(F)(F)F)NC(=O)Nc2ccc(F)c(F)c21 (stereo in doubt; 20) , report its IC90. 10

Record request: IC90 value, item "COc1ccc2c(c1)[C@@](C#CC(C)C)(C(F)(F)F)NC(=O)N2" 28

Quick one: IC90 for "O=C1Nc2ccc(F)cc2[C@@](C#CC2CC2)(C(F)(F)F)N1" ? 29

Look at this molecule and give its reported IC90. "O=C1Nc2ccc(F)cc2[C@@](C#Cc2ccccn2)(C(F)(F)F)N1" 255

Need IC90, item "O=C1Nc2ccc(F)c(F)c2[C@@](C#Cc2ccccn2)(C(F)(F)F)N1" 37

* * *

Biological target: Human immunodeficiency virus type 1 reverse transcriptase (Human immunodeficiency virus 1, UniProt Q72547)
pIC50: −log10 of the molar value.
Criterion: pIC50 meeting or surpassing 7. Met: MET. Not met: NOT MET.

chemical-string	qualitative-label
COc1ccc2c(c1)[C@@](C#CC(C)C)(C(F)(F)F)NC(=O)N2	NOT MET
COc1ccc2c(c1)[C@@](C#Cc1ccccn1)(C(F)(F)F)NC(=O)N2	NOT MET

Quick check: does "O=C1Nc2ccc(F)c(Cl)c2[C@@](C#CC2CC2)(C(F)(F)F)N1" have pIC50 greater than or equal to 7? MET

Item "O=C1Nc2ccc(F)c(F)c2[C@@](C#Cc2ccccc2)(C(F)(F)F)N1" with pIC50 of 7 or above? NOT MET

State whether the measured pIC50 reaches 7, counting equality as reaching it, for "O=C1Nc2ccc(Cl)cc2[C@@](C#Cc2ccccc2)(C(F)(F)F)N1" NOT MET

* * *

Biological target: Human immunodeficiency virus type 1 reverse transcriptase (Human immunodeficiency virus 1) (UniProt Q72547)
Settings: Plasma
Description: Effect of human plasma protein binding on antiviral efficacy.
// classify: if (IC90 < 20 nM) met else not met

compound	qualitative-label
CC(C)C#C[C@]1(C(F)(F)F)NC(=O)Nc2ccc(F)c(F)c21 (stereo in doubt; 20)	not met

Identify whether the compound "O=C1Nc2ccc(F)c(F)c2[C@@](C#Cc2ccccn2)(C(F)(F)F)N1" records IC90 below 20 nM. not met

Consider "O=C1Nc2ccc(F)cc2[C@@](C#Cc2ccccn2)(C(F)(F)F)N1" . Does its IC90 lie strictly below 20 nM? not met

Is 20 nM strictly greater than the compound's reported IC90? compound: "O=C1Nc2cccc(F)c2[C@@](C#CC2CC2)(C(F)(F)F)N1" met

Hello, I'm reviewing records and need to know if IC90 of "O=C1Nc2ccc(F)c(F)c2[C@@](C#Cc2ccccc2)(C(F)(F)F)N1" is below 20 nM. Could you check? not met

* * *

Biological target: Human immunodeficiency virus type 1 reverse transcriptase (Human immunodeficiency virus 1, UniProt Q72547)
Each record here notes measured pIC50.
Scale explanation: pIC50 corresponds to minus log10 of a concentration expressed in moles per litre.

compound	pIC50
O=C1Nc2cccc(F)c2[C@@](C#CC2CC2)(C(F)(F)F)N1	7.21
COc1ccc2c(c1)[C@@](C#CC1CC1)(C(F)(F)F)NC(=O)N2	6.91
O=C1Nc2ccc(F)cc2[C@@](C#Cc2ccccn2)(C(F)(F)F)N1	6.90
O=C1Nc2ccc(F)c(Cl)c2[C@@](C#Cc2ccccn2)(C(F)(F)F)N1	7.10
O=C1Nc2ccc(F)c(F)c2[C@@](C#CC2CC2)(C(F)(F)F)N1 (stereo in doubt; 13)	7.13
O=C1Nc2ccc(Cl)c(F)c2[C@@](C#CC2CC2)(C(F)(F)F)N1	6.99
O=C1Nc2ccc(F)c(F)c2[C@@](C#Cc2ccccn2)(C(F)(F)F)N1	7.17

Would you kindly share the measured pIC50 for "O=C1Nc2cccc(Cl)c2[C@@](C#CC2CC2)(C(F)(F)F)N1" ? 7.14

* * *

Biological target: Human immunodeficiency virus type 1 reverse transcriptase (Human immunodeficiency virus 1)
Details: Plasma
Each record here notes measured IC90.
Hi! Could you send only the number? It should be in nM, unit omitted.

The following molecules have reported results that may help.
O=C1Nc2ccc(Cl)cc2[C@@](C#Cc2ccccc2)(C(F)(F)F)N1 86
CC(C)C#C[C@]1(C(F)(F)F)NC(=O)Nc2ccc(F)c(Cl)c21 15
COc1ccc2c(c1)[C@@](C#Cc1ccccc1)(C(F)(F)F)NC(=O)N2 42
O=C1Nc2ccc(F)cc2[C@@](C#Cc2ccccc2)(C(F)(F)F)N1 66
O=C1Nc2ccc(F)c(Cl)c2[C@@](C#CC2CC2)(C(F)(F)F)N1 27

May I ask what IC90 has been recorded for "O=C1Nc2cccc(Cl)c2[C@@](C#CC2CC2)(C(F)(F)F)N1" ? 18

Dear colleague, I am looking for the recorded IC90 of the following molecule: "O=C1Nc2ccc(Cl)c(Cl)c2[C@@](C#CC2CC2)(C(F)(F)F)N1" 88

Consider the molecule "CC(C)C#C[C@]1(C(F)(F)F)NC(=O)Nc2ccc(F)cc21" and give its measured IC90. 86

May I ask what IC90 has been recorded for "O=C1Nc2ccc(F)cc2[C@@](C#CC2CC2)(C(F)(F)F)N1" ? 24

Entry "COc1ccc2c(c1)[C@@](C#Cc1ccccn1)(C(F)(F)F)NC(=O)N2" : reported IC90 = ? 138

# IC90 lookup, item "CC(C)C#C[C@]1(C(F)(F)F)NC(=O)Nc2ccc(Cl)cc21" 90

I would be grateful if you could share the reported IC90 for "Cc1ccnc2c1NC(=O)c1cccnc1N2C1CC1" . 100

So what's the measured IC90 for this one? "CCC#C[C@]1(C(F)(F)F)NC(=O)Nc2ccc(F)cc21" 25
